List of pIC50 values.
Target: Dihydrofolate reductase (Homo sapiens)
Sequence (P00374 whole entry): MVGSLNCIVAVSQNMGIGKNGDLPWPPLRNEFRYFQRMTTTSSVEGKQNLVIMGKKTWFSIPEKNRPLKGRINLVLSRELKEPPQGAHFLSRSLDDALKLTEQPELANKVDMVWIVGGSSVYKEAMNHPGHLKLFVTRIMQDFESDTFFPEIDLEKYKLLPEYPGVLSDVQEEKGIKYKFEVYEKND
Note on units: pIC50 is unitless, being -log10 of a concentration expressed in mol/L.

What pIC50 value was documented for this molecule, CCc1nc(N)nc(N)c1C#CC(C)c1ccc(-c2ccc(F)cc2)cc1OC (configuration not stated) ?
6.83

Next:
What pIC50 value was documented for this molecule, COc1cc(C(C)C#Cc2c(C)nc(N)nc2N)c(OC)cc1-c1ccccc1 (configuration not stated) ?
6.50

What pIC50 value was documented for this molecule, CCc1nc(N)nc(N)c1C#CC(C)c1ccc(-c2ccccc2)cc1OC (configuration not stated) ?
6.76
